system: Streptococcus sp.; test: In vitro antibacterial evaluation: minimum inhibitory concentration (MIC), broth dilution method; type: cell-based; details: Streptococcus pneumoniae (GC 1894); broth dilution, 18 hours at 35° C.
Numbered stars: 1 amine (or outer) side, 2 acyl side, 3 side chain; on linkers, the order of the positions; unused ones are H or OH. Square brackets hold non-standard residues; d marks the D form. Peptide text beside a SMILES is read from it. * marks the point of attachment. ξ: configuration not given here. X1 = N=C1NCC(C(O)C(N[*:1])C(=O)[*:2])N1C1OC(CO)C(O)C(O)C1O; ξEnduracididine(βξ-OH,4'ξ) = N=C1NCC(C(O)C(N)C(=O)O)N1; X2 = OCC1OC(OC2C(CO)OC(*)C(O)C2O)C(O)C(O)C1O; ξCha(3ξ-Me) = CC(C1CCCCC1)C(N)C(=O)O
experimental.endpoint: MIC Streptococcus pneumoniae (GC 1894) (µg/mL)
Give just the numeric value; µg/mL need not be written.

// solved cases for MIC Streptococcus pneumoniae (GC 1894) follow
molecule	measured.target	MIC Streptococcus pneumoniae (GC 1894), µg/mL
CC(c1ccccc1)C1NC(=O)CNC(=O)C(CO)NC(=O)C(C(O)C2CNC(=N)N2C2OC(CO)C(O)C(O)C2O)NC(=O)C(C(O)C2CNC(=N)N2)NC(=O)C(Cc2ccc3oc(-c4ccc(OCc5ccccc5)cc4)nc3c2)NC1=O (stereo not drawn) [Example 31]	Streptococcus sp.	32
CC(c1ccccc1)C1NC(=O)CNC(=O)C(CO)NC(=O)C(C(O)C2CNC(=N)N2C2OC(CO)C(O)C(O)C2O)NC(=O)C(C(O)C2CNC(=N)N2)NC(=O)C(Cc2ccc3oc(C=C(c4ccccc4)c4ccccc4)nc3c2)NC1=O (stereo not drawn) [Example 39]	Streptococcus sp.	8
CC(c1ccccc1)C1NC(=O)CNC(=O)C(CO)NC(=O)C(C(O)C2CNC(=N)N2C2OC(CO)C(O)C(O)C2O)NC(=O)C(C(O)C2CNC(=N)N2)NC(=O)C(Cc2ccc3oc(-c4ccc(Br)cc4)nc3c2)NC1=O (stereo not drawn) [Example 27]	Streptococcus sp.	32
CC(C1CCCCC1)C1NC(=O)CNC(=O)C(CO)NC(=O)C(C(O)C2CNC(=N)N2C2OC(CO)C(O)C(O)C2O)NC(=O)C(C(O)C2CNC(=N)N2)NC(=O)C(Cc2ccc(OC3OC(CO)C(OC4OC(CO)C(O)C(O)C4O)C(O)C3O)cc2)NC1=O (stereo not drawn) [Example 51] (cyclo(G[ξCha(3ξ-Me)]Y(X2)[ξEnduracididine(βξ-OH,4'ξ)][X1]S); configuration not given here)	Streptococcus sp.	4
CC(c1ccccc1)C1NC(=O)CNC(=O)C(CO)NC(=O)C(C(O)C2CN(CCCCCCCCCCC(=O)O)C(=N)N2C2OC(CO)C(O)C(O)C2O)NC(=O)C(C(O)C2CNC(=N)N2)NC(=O)C(Cc2ccc(OC3OC(CO)C(OC4OC(CO)C(O)C(O)C4O)C(O)C3O)cc2)NC1=O (stereo not drawn) [Example 72]	Streptococcus sp.	16

Need MIC Streptococcus pneumoniae (GC 1894) of CC(c1ccccc1)C1NC(=O)CNC(=O)C(CO)NC(=O)C(C(O)C2CNC(=N)N2C2OC(CO)C(O)C(O)C2O)NC(=O)C(C(O)C2CNC(=N)N2)NC(=O)C(Cc2ccc3oc(SCc4ccc5ccccc5c4)nc3c2)NC1=O (stereo not drawn) [Example 46] , thanks. 8

Field request: MIC Streptococcus pneumoniae (GC 1894) | item: CC(c1ccccc1)C1NC(=O)CNC(=O)C(CO)NC(=O)C(C(O)C2CNC(=N)N2C2OC(CO)C(O)C(O)C2O)NC(=O)C(C(O)C2CNC(=N)N2)NC(=O)C(Cc2ccc3oc(SCc4ccccc4)nc3c2)NC1=O (stereo not drawn) [Example 45] 16

Name the reported MIC Streptococcus pneumoniae (GC 1894) value associated with the molecule CC(c1ccccc1)C1NC(=O)CNC(=O)C(CO)NC(=O)C(CC2CN(Cc3ccccc3)C(=NCc3ccccc3)N2C2OC(CO)C(O)C(O)C2O)NC(=O)C(CC2CN(Cc3ccccc3)C(=NCc3ccccc3)N2Cc2ccccc2)NC(=O)C(Cc2ccc(OC3OC(CO)C(OC4OC(CO)C(O)C(O)C4O)C(O)C3O)cc2)NC1=O (stereo not drawn) [Example 73] 64

Look at this molecule and give its reported MIC Streptococcus pneumoniae (GC 1894). CC(c1ccccc1)C1NC(=O)CNC(=O)C(CO)NC(=O)C(C(O)C2CN(Cc3ccc4ccccc4c3)C(=N)N2C2OC(CO)C(O)C(O)C2O)NC(=O)C(C(O)C2CNC(=N)N2)NC(=O)C(Cc2ccc(OC3OC(CO)C(OC4OC5COC6(OC5C(O)C4O)C4CC5CC(C4)CC6C5)C(O)C3O)cc2)NC1=O (stereo not drawn) [Example 78] 0.25

# MIC Streptococcus pneumoniae (GC 1894) lookup, item CC(c1ccccc1)C1NC(=O)CNC(=O)C(CO)NC(=O)C(C(O)C2CNC(=N)N2C2OC(CO)C(O)C(O)C2O)NC(=O)C(C(O)C2CNC(=N)N2)NC(=O)C(Cc2ccc(O)c(NC=O)c2)NC1=O (stereo not drawn) [Example 18] 64

Recorded MIC Streptococcus pneumoniae (GC 1894) of CC(c1ccccc1)C1NC(=O)CNC(=O)C(CO)NC(=O)C(C(O)C2CNC(=N)N2C2OC(CO)C(O)C(O)C2O)NC(=O)C(C(O)C2CNC(=N)N2)NC(=O)C(Cc2ccc3oc(-c4cccc([N+](=O)[O-])c4)nc3c2)NC1=O (stereo not drawn) [Example 26] , please. 16

Item CC(c1ccccc1)C1NC(=O)CNC(=O)C(CO)NC(=O)C(CC2CN(Cc3ccccc3)C(=N)N2C2OC(CO)C(O)C(O)C2O)NC(=O)C(CC2CNC(=N)N2)NC(=O)C(Cc2ccc(OC3OC(CO)C(OC4OC5COC6(OC5C(O)C4O)C4CC5CC(C4)CC6C5)C(O)C3O)cc2)NC1=O (stereo not drawn) [Example 80] has what recorded MIC Streptococcus pneumoniae (GC 1894)? 4

Look up MIC Streptococcus pneumoniae (GC 1894) for this molecule: CC(c1ccccc1)C1NC(=O)CNC(=O)C(CO)NC(=O)C(C(O)C2CNC(=N)N2C2OC(CO)C(O)C(O)C2O)NC(=O)C(C(O)C2CNC(=N)N2)NC(=O)C(Cc2ccc(O)c(NC(=S)Nc3cc(C(F)(F)F)cc(C(F)(F)F)c3)c2)NC1=O (stereo not drawn) [Example 24] 64

Values from patent US8247211B2
